Data provenance is ChEMBL document CHEMBL3751764.

- Target Entity: Vascular endothelial growth factor receptor 2 (Homo sapiens)
- Sequence (P35968 whole entry): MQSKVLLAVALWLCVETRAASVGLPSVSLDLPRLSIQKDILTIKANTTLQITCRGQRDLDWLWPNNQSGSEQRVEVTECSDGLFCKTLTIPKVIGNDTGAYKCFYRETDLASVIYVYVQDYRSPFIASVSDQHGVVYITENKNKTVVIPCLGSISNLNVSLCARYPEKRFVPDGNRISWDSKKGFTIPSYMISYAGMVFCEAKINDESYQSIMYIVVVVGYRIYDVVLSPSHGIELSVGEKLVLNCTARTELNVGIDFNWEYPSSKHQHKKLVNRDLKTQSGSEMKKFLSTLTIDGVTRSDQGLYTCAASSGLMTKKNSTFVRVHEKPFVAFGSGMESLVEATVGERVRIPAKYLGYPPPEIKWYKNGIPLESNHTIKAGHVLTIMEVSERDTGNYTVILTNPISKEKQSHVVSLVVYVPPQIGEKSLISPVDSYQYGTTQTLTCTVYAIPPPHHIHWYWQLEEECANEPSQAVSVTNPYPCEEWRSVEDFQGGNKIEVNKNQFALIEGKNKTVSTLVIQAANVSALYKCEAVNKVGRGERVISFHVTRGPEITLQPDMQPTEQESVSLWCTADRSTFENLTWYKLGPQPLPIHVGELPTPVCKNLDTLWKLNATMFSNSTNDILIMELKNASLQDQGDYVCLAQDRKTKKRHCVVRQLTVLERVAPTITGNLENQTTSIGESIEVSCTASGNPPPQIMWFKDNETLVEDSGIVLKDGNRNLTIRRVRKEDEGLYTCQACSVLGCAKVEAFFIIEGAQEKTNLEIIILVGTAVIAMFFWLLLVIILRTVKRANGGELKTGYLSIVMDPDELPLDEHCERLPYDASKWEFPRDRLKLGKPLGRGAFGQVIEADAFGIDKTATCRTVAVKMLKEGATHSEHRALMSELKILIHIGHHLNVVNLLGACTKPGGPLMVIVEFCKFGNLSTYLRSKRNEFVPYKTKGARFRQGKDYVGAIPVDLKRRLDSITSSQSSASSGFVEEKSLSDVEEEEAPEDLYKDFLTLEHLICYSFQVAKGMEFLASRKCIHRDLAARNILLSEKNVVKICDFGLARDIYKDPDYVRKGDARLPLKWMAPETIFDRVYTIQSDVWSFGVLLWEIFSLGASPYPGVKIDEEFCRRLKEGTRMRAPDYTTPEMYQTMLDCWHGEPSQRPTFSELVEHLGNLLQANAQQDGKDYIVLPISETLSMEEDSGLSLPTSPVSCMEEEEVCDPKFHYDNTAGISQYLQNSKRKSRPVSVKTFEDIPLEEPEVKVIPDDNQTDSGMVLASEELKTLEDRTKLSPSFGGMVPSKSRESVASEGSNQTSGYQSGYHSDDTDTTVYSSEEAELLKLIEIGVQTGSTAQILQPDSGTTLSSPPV
- Procedure Details: Inhibition of human VEGFR2 at 10 uM after 20 to 40 mins by liquid scintillation counting analysis in presence of […]
- Set-up: scale not given: the % may be the effect or the level left

[
  {
    "Molecular String": "Cc1ccc2nc(Nc3ncnc4c3cnn4-c3ccccc3)sc2c1",
    "Activity, %": -1
  },
  {
    "Molecular String": "O=C(NC1CCCCC1)c1ccc(Nc2ncnc3c2cnn3-c2ccc(Cl)cc2)cc1",
    "Activity, %": -4
  },
  {
    "Molecular String": "O=C(Nc1ccc(Nc2ncnc3c2cnn3-c2ccccc2)cc1)Nc1cccc(Cl)c1",
    "Activity, %": -3
  },
  {
    "Molecular String": "O=c1sc2cc(Nc3ncnc4c3cnn4-c3ccc(Cl)cc3)ccc2n1Cc1ccc(Cl)cc1Cl",
    "Activity, %": 1
  },
  {
    "Molecular String": "O=C(Nc1ccccc1)Nc1ccc(Oc2ncnc3c2cnn3-c2ccccc2)cc1",
    "Activity, %": 1
  },
  {
    "Molecular String": "c1ccc(COc2ccc(Nc3ncnc4c3cnn4-c3ccccc3)cc2)cc1",
    "Activity, %": -5
  },
  {
    "Molecular String": "O=c1sc2cc(Nc3ncnc4c3cnn4-c3ccccc3)ccc2n1Cc1ccc(Cl)cc1",
    "Activity, %": -7
  },
  {
    "Molecular String": "O=C(Nc1ccccc1Cl)c1ccc(Nc2ncnc3c2cnn3-c2ccc(Cl)cc2)cc1",
    "Activity, %": -8
  },
  {
    "Molecular String": "O=C(Nc1ccc(Nc2ncnc3c2cnn3-c2ccc(Cl)cc2)cc1)Nc1ccccc1Cl",
    "Activity, %": 1
  },
  {
    "Molecular String": "O=C(NC1CCCCC1)c1ccc(Nc2ncnc3c2cnn3-c2ccccc2)cc1",
    "Activity, %": 7
  },
  {
    "Molecular String": "O=C(Nc1cccc(Cl)c1)c1ccc(Nc2ncnc3c2cnn3-c2ccccc2)cc1",
    "Activity, %": 2
  },
  {
    "Molecular String": "O=c1sc2cc(Nc3ncnc4c3cnn4-c3ccccc3)ccc2n1Cc1ccc(Cl)c(Cl)c1",
    "Activity, %": 1
  }
]
